Each recorded value in this set is attributed to patent US20190352268A1.

Please respond with reported pKi for every item in the list.
assayed.target: CB1 (Mus musculus, UniProt P47746)
Sequence (P47746 whole entry): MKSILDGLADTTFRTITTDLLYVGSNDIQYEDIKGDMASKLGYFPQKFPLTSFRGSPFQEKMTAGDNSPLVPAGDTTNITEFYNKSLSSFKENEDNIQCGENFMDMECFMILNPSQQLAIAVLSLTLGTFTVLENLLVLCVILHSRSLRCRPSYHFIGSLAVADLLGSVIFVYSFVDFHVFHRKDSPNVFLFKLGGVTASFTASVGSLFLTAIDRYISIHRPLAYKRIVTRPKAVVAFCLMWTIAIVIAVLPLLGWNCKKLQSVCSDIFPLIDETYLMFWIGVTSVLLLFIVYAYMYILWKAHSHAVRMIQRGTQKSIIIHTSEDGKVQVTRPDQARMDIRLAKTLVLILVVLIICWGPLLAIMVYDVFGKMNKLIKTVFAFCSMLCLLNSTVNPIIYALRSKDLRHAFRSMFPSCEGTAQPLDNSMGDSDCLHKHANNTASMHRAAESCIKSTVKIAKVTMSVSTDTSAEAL
method.summary: CB1 radioligand displacement assay in mouse brain membranes
Format: binding
Parameters: radioligand displacement assay in mouse brain membranes; from tissue; host or cells: mouse brain membranes
condition.parameters: Table 2; read-out: Ki CB1
One number for each entry, as −log10 of the molar value.

{"columns": ["molecule", "pKi"],
 "data": [
  ["N/C(=N\\C(=N\\S(=O)(=O)c1ccc(Cl)cc1)N1CC(c2ccccc2)C(c2ccc(Cl)cc2)=N1)N1CCCCC1 (stereo not drawn)", 6.56]
]}

Provide the reported pKi of each entry below, same order.
1. NC(=NC(=NS(=O)(=O)c1ccc(Cl)cc1)N1CC(c2ccccc2)C(c2ccc(Cl)cc2)=N1)c1cccs1 (stereo not drawn)
2. NC(=NC(=NS(=O)(=O)c1ccc(Cl)cc1)N1CC(c2ccccc2)C(c2ccc(Cl)cc2)=N1)c1ccc(F)cc1F (stereo not drawn)

1. 7.22
2. 8.11

###

assayed.target: CB1 (Mus musculus, UniProt P47746)
method.summary: CB1 radioligand displacement assay in mouse brain membranes
Assay type: binding
Design: radioligand displacement assay in mouse brain membranes; from tissue; host or cells: mouse brain membranes
condition.parameters: Table 2; read-out: Ki CB1
parameter: pKi
One number for each entry, as −log10 of the molar value.

See these solved cases before continuing.
{"columns": ["compound", "pKi"],
 "data": [
  ["NC(=NC(=NS(=O)(=O)c1ccc(Cl)cc1)N1CC(c2ccccc2)C(c2ccc(Cl)cc2)=N1)c1ccccc1F (centres unmarked)", 7.72],
  ["CC(N)=NC(=NS(=O)(=O)c1ccc(I)cc1)N1CC(c2ccccc2)C(c2ccc(Cl)cc2)=N1 (centres unmarked)", 8.00]
]}

Provide the reported pKi of each entry below, same order.
1. N/C(=N\C(=N\S(=O)(=O)c1ccc(Cl)cc1)N1CC(c2ccccc2)C(c2ccc(Cl)cc2)=N1)NCc1ccccc1 (centres unmarked)
2. CN(Cc1cccnc1)C(N)=NC(=NS(=O)(=O)c1ccc(Cl)cc1)N1CC(c2ccccc2)C(c2ccc(Cl)cc2)=N1 (centres unmarked)
3. NC(=NC(=NS(=O)(=O)c1ccc(Cl)cc1)N1CC(c2ccccc2)C(c2ccc(Cl)cc2)=N1)SCCCc1ccccc1 (centres unmarked)
4. CN1CCN(/C(N)=N/C(=N/S(=O)(=O)c2ccc(Cl)cc2)N2CC(c3ccccc3)C(c3ccc(Cl)cc3)=N2)CC1 (centres unmarked)
5. N/C(=N\C(=N\S(=O)(=O)c1ccc(Cl)cc1)N1CC(c2ccccc2)C(c2ccc(Cl)cc2)=N1)NC1CCCCC1 (centres unmarked)
6. CC(C)(N/C(N)=N/C(=N/S(=O)(=O)c1ccc(Cl)cc1)N1CC(c2ccccc2)C(c2ccc(Cl)cc2)=N1)c1ccccc1 (centres unmarked)

6.30
6.83
6.72
6.51
6.38
6.95

###

assayed.target: CB1 (Mus musculus)
method.summary: CB1 radioligand displacement assay in mouse brain membranes
Assay type: binding
Design: radioligand displacement assay in mouse brain membranes; from tissue; host or cells: mouse brain membranes
condition.parameters: Table 2; read-out: Ki CB1
Please respond with reported Ki for every item in the list.
Answers are plain numbers, in µM.

{"columns": ["compound", "parameter", "recorded.number"],
 "data": [
  ["NC(=NC(=NS(=O)(=O)c1ccc(C(F)(F)F)cc1)N1CC(c2ccccc2)C(c2ccc(Cl)cc2)=N1)c1ccc(F)cc1 (stereo not drawn)", "Ki", 0.009]
]}

Provide the reported Ki of each entry below, same order.
1. N/C(=N\C(=N\S(=O)(=O)c1ccc(Cl)cc1)N1CC(c2ccccc2)C(c2ccc(Cl)cc2)=N1)NCCc1c[nH]c2ccccc12 (stereo not drawn)
2. COC(CN(C)C(N)=NC(=NS(=O)(=O)c1ccc(Cl)cc1)N1CC(c2ccccc2)C(c2ccc(Cl)cc2)=N1)OC (stereo not drawn)

1. 0.585
2. 0.443

Provide the reported Ki of each entry below, same order.
1. CN(CC(C)(C)C)C(N)=NC(=NS(=O)(=O)c1ccc(Cl)cc1)N1CC(c2ccccc2)C(c2ccc(Cl)cc2)=N1 (stereo not drawn)
2. CC(N)=NC(=NS(=O)(=O)c1ccccc1)N1CC(c2ccccc2)C(c2ccc(Cl)cc2)=N1 (stereo not drawn)
3. COCCN/C(N)=N/C(=N/S(=O)(=O)c1ccc(Cl)cc1)N1CC(c2ccccc2)C(c2ccc(Cl)cc2)=N1 (stereo not drawn)
4. NC(=NC(=NS(=O)(=O)c1ccc(I)cc1)N1CC(c2ccccc2)C(c2ccc(Cl)cc2)=N1)c1ccc(F)cc1 (stereo not drawn)
5. N/C(=N\C(=N\S(=O)(=O)c1ccc(Cl)cc1)N1CC(c2ccccc2)C(c2ccc(Cl)cc2)=N1)N1CCOCC1 (stereo not drawn)
6. NC(COc1ccccc1)=NC(=NS(=O)(=O)c1ccc(Cl)cc1)N1CC(c2ccccc2)C(c2ccc(Cl)cc2)=N1 (stereo not drawn)
7. N/C(=N\C(=N\S(=O)(=O)c1ccc(Cl)cc1)N1CC(c2ccccc2)C(c2ccc(Cl)cc2)=N1)NC1CCCC1 (stereo not drawn)

[2.39, 0.114, 0.848, 0.012, 0.193, 0.072, 0.459]

Provide the reported Ki of each entry below, same order.
1. CC(N)=NC(=NS(=O)(=O)c1ccc(C)cc1)N1CC(c2ccccc2)C(c2ccc(Cl)cc2)=N1 (stereo not drawn)
2. COCCN(CCOC)/C(N)=N/C(=N/S(=O)(=O)c1ccc(Cl)cc1)N1CC(c2ccccc2)C(c2ccc(Cl)cc2)=N1 (stereo not drawn)
3. CCN(CC)/C(N)=N/C(=N/S(=O)(=O)c1ccc(Cl)cc1)N1CC(c2ccccc2)C(c2ccc(Cl)cc2)=N1 (stereo not drawn)
4. O=S(=O)(N=C(N=C1CCCCN1)N1CC(c2ccccc2)C(c2ccc(Cl)cc2)=N1)c1ccc(Cl)cc1 (stereo not drawn)

1: 0.087; 2: 0.425; 3: 0.049; 4: 0.029
